Test system: Aphis craccivoral
Test: Insecticidal activity against Aphis craccivoral by immersing (dipping aphids on bean sprout)
Format: in vivo
Details: 500 ppm; immersing (dipped 5 seconds); counted after 24 hours; 23° C.
Procedure: Test on the insecticidal activity of Compound Nos. 1-227 Aphis, which belongs to Homoptera and has a piercing-sucking mouthpart, is a common insect for agricultural plant. Aphis craccivoral was tested by the way of immersing. Test method: exactly weighed various samples were independently added to N,N-dimethylformamide to form a 10 g/L stock solution. […] The number of killed aphis was counted after 24 hours to calculate the mortality.
Threshold 30%: mortality (%) (500 ppm) Aphis strictly smaller gives satisfied, otherwise not satisfied.

Query block: Consider the compound CC(C)OC1CCC([N+](=O)[O-])=C2N(CC3CCOC3)CCN21 (stereo not drawn) [Compound 51] . Is its mortality (%) (500 ppm) Aphis strictly less than 30%?
Result block: not satisfied

Query block: And CCCCOC1CCC([N+](=O)[O-])=C2N(Cc3cnc(Cl)s3)CCCN21 (stereo not drawn) [Compound 93] ?
Result block: satisfied

Query block: And O=[N+]([O-])C1=C2N(CC3CCOC3)CCCN2C(O)CC1 (stereo not drawn) [Compound 99] ?
Result block: satisfied

Query block: And COC1CCC([N+](=O)[O-])=C2N(CC3CCOC3)CCCN21 (stereo not drawn) [Compound 100] ?
Result block: satisfied

Query block: And COC1CCC([N+](=O)[O-])=C2N(Cc3cnc(Cl)s3)CCCN21 (stereo not drawn) [Compound 86] ?
Result block: not satisfied

Query block: And CC(C)(OC1CCC([N+](=O)[O-])=C2N(Cc3cnc(Cl)s3)CCN21)C(Cl)(Cl)Cl (racemic) [Compound 35] ?
Result block: not satisfied

Query block: And CC(C)(OC1CCC([N+](=O)[O-])=C2N(CC3CCOC3)CCN21)C(Cl)(Cl)Cl (stereo not drawn) [Compound 57] ?
Result block: not satisfied

Query block: And O=[N+]([O-])C1=C2N(Cc3ccc(Cl)nc3)CCCN2C(OCCCl)CC1 (stereo not drawn) [Compound 74] ?
Result block: satisfied

Query block: And O=[N+]([O-])C1=C2N(CC3CCOC3)CCCN2C(OCC(F)(F)F)CC1 (stereo not drawn) [Compound 103] ?
Result block: satisfied

Query block: And CS(=O)(=O)OC1CCC([N+](=O)[O-])=C2N(Cc3cnc(Cl)s3)CCN21 (stereo not drawn) [Compound 156] ?
Result block: not satisfied

Query block: And CCCC(C)OC1CCC([N+](=O)[O-])=C2N(Cc3cnc(Cl)s3)CCN21 (mixture of isomers) [Compound 38] ?
Result block: not satisfied

Query block: And CCOCCSC1CCC([N+](=O)[O-])=C2N(Cc3ccc(Cl)nc3)CCN21 (stereo not drawn) [Compound 149] ?
Result block: not satisfied
